- TARGET UNDER TEST: Glucagon-like peptide 1 receptor (Homo sapiens) (UniProt P43220)
- Sequence (P43220 whole entry, looked up): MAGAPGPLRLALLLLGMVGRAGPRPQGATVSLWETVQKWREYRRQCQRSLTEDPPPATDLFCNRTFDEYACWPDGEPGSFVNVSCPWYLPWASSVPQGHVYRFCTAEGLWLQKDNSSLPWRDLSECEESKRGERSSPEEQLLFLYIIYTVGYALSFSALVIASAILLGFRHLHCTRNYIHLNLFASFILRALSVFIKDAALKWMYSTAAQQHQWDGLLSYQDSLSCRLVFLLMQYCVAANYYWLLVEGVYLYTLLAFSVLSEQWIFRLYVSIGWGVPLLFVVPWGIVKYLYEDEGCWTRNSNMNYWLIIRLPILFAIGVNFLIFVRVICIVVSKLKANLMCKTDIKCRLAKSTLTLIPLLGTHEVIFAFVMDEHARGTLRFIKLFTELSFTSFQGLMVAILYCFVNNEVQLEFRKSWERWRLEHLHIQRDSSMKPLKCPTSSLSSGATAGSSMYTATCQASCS
- TEST: qHTS of GLP-1 Receptor Inverse Agonists (Inhibition Mode); further: nearly all actives have a fitted effect of over 55% in size
- CONDITION INFO: HEK293 GLP-1R CRE-luciferase, luminescence, 24 h, GLP-1R form is constitutively active; series mostly up to 38.3 µM
Hit rate of the full screen: of about 410,000 compounds, about 6,400 (1.6%) were called active. Roughly 20% stayed inconclusive and do not appear here. The call rests on the fitted dose curve; in most records, active means well fitted inhibition curve with a large enough effect; inconclusive means small, poorly fitted or top-dose-only effect; inactive means no such curve, though single readings can be large or run the other way. Only a selection was taken, and actives are over-represented in it overall.
The categories you may choose from are T (active), F (inactive)

What was the test verdict on "COc1ccc(C/C(N)=N/OC(=O)c2ccco2)cc1OC" ? F

What was the test verdict on "COCCNc1nc(NCc2ccc(NC(C)=O)cc2)c2sccc2n1" ? F

What was the test verdict on Cc1cccc(N2CCN(C(=O)c3cccc(N4C(=O)C5C6C=CC(C6)C5C4=O)c3)CC2)c1C (stereo unspecified) ? F

What was the test verdict on "Fc1ccc(-c2ccc(CNCc3ccccn3)o2)cc1Cl" ? F

What was the test verdict on "CC(C)n1cnc2c(Nc3cccc(Cl)c3)nc(N(CCO)CCCO)nc21" ? T

What was the test verdict on "Cc1cccc(N2CCN(C(=O)c3ccc4c(c3)CCN4S(=O)(=O)c3ccccc3)CC2)c1C" ? T

What was the test verdict on CCCNC(=O)C1(C)CCN(C(=O)c2cc(F)ccc2C)C1 (stereo unspecified) ? F

What was the test verdict on "COc1ccc(C(=O)O/N=C(\N)Cc2ccc(Cl)cc2Cl)cc1OC" ? T

What was the test verdict on "O=S(=O)(c1ccccc1)N1CCc2ccccc21" ? F

What was the test verdict on "Clc1ccc(-c2cc(-c3ccccn3)on2)c(Cl)c1" ? T

What was the test verdict on CC1Oc2ccccc2N(Cc2cccnc2)C1=O (stereo unspecified) ? F
